Assay: Mouse liver microsomal stability assay
Format: in vitro ADME
Conditions: mouse, microsomes
Some molecules, each annotated with its measured microsomal CLint.
endpoint: microsomal CLint

>>> df
                          smiles_notation            result
0              O=c1cccc(-c2ccc(F)cn2)cc1O  < 11.6 µL/min/mg
1  Cc1c(F)cncc1-c1ccc([O-])c(=O)cc1.[Na+]  < 11.6 µL/min/mg
2         Cc1ncc(-c2cccc(=O)c(O)c2)c(C)n1  < 11.6 µL/min/mg
3          O=c1cccc(-c2cnc(C3CC3)nc2)cc1O  < 11.6 µL/min/mg
4           Cc1ncc(-c2cccc(=O)c(O)c2)cc1F  < 11.6 µL/min/mg
5              O=c1cccc(-c2cncc(F)c2)cc1O  < 11.6 µL/min/mg
6              O=c1ccccc(-c2ccc(F)cn2)c1O    < 25 µL/min/mg
7           Cc1ccc(-c2cncc(F)c2)cc(O)c1=O    16.7 µL/min/mg
8            Cc1ncc(-c2cccc(=O)c(O)c2)cn1  < 11.6 µL/min/mg

----------
Entries and their half-life values follow.
Test: Mouse 6-hour PK study
Conditions: in vivo
Excerpt: Compounds of the present disclosure were further evaluated in standard in vitro and in vivo Absorption, Distribution, Metabolism, Excretion (ADME) and Drug Metabolism and Pharmacokinetics (DMPK) assays to assess drug profiles important for further drug development. Such assessments included human and mouse liver microsomal stability assays as well as 6-hour mouse PK studies.
endpoint: half-life

In [3]: df
Out[3]:
                           smiles_notation   endpoint          result
 0              O=c1cccc(-c2ccc(F)cn2)cc1O  half-life  1.25 to 4.99 h
 1             O=c1ccccc(Oc2ccc(F)cc2F)c1O  half-life  1.25 to 4.99 h
 2            Cc1ncc(-c2cccc(=O)c(O)c2)cn1  half-life  1.25 to 4.99 h
 3              O=c1ccccc(-c2ccc(F)cn2)c1O  half-life  1.25 to 4.99 h
 4  Cc1c(F)cncc1-c1ccc([O-])c(=O)cc1.[Na+]  half-life  1.25 to 4.99 h
 5                  O=c1ccccc(-c2cscn2)c1O  half-life        < 1.25 h
 6           Cc1ccc(-c2cncc(F)c2)cc(O)c1=O  half-life  1.25 to 4.99 h
 7           Cc1ncc(-c2cccc(=O)c(O)c2)cc1F  half-life  1.25 to 4.99 h
 8              O=c1cccc(-c2cncc(F)c2)cc1O  half-life        < 1.25 h
 9          O=c1cccc(-c2cnc(C3CC3)nc2)cc1O  half-life  1.25 to 4.99 h
10         Cc1ncc(-c2cccc(=O)c(O)c2)c(C)n1  half-life  1.25 to 4.99 h

----------
Experiment: Mouse liver microsomal stability assay
Format: in vitro ADME
Conditions: mouse liver microsomes; Table 4; read-out: Mouse CLint
endpoint: microsomal CLint (µL/min/mg)

In [3]: df
Out[3]:
                                   compound          endpoint  measurement_unit  recorded_number
0  CC(C)c1cccc(=O)c(O)c1 [hinokitiol, reference compound]  microsomal CLint         µL/min/mg             43.4

----------
Assay: Mouse liver microsomal stability assay
Format: in vitro ADME
Details: mouse, microsomes
The entries below are paired with their reported half-life.
endpoint: half-life

>>> df
                 smiles_notation  result
0     O=c1cccc(-c2cncc(F)c2)cc1O   > 2 h
1   Cc1ncc(-c2cccc(=O)c(O)c2)cn1   > 2 h
2  Cc1ncc(-c2cccc(=O)c(O)c2)cc1F   > 2 h

----------
Listed here: items and their measured Cmax.
Assay: Mouse 6-hour PK study
Conditions: in vivo
endpoint: Cmax

>>> print(df.to_string())
                           smiles_notation               result
 0           Cc1ncc(-c2cccc(=O)c(O)c2)cc1F    500 to 1500 ng/mL
 1  Cc1c(F)cncc1-c1ccc([O-])c(=O)cc1.[Na+]  5000 to 20000 ng/mL
 2              O=c1cccc(-c2ccc(F)cn2)cc1O   1500 to 5000 ng/mL
 3              O=c1cccc(-c2cncc(F)c2)cc1O  5000 to 20000 ng/mL
 4           Cc1ccc(-c2cncc(F)c2)cc(O)c1=O  5000 to 20000 ng/mL
 5             O=c1ccccc(Oc2ccc(F)cc2F)c1O   1500 to 5000 ng/mL
 6            Cc1ncc(-c2cccc(=O)c(O)c2)cn1   1500 to 5000 ng/mL
 7          O=c1cccc(-c2cnc(C3CC3)nc2)cc1O    500 to 1500 ng/mL
 8              O=c1ccccc(-c2ccc(F)cn2)c1O   1500 to 5000 ng/mL
 9                  O=c1ccccc(-c2cscn2)c1O   1500 to 5000 ng/mL
10         Cc1ncc(-c2cccc(=O)c(O)c2)c(C)n1   1500 to 5000 ng/mL

----------
Experiment: Human liver microsomal stability assay
Assay type: in vitro ADME
Conditions: human liver microsomes; Table 4; read-out: Human CLint
endpoint: microsomal CLint (µL/min/mg)

>>> df
                                   molecule          endpoint  recorded_number
0  CC(C)c1cccc(=O)c(O)c1 [hinokitiol, reference compound]  microsomal CLint              150

----------
Assay: Mouse liver microsomal stability assay
Format: in vitro ADME
Details: mouse liver microsomes; Table 4; read-out: Mouse t1/2
endpoint: half-life (min)

                                   compound  measurement_unit  recorded_number
0  CC(C)c1cccc(=O)c(O)c1 [hinokitiol, reference compound]               min               32

----------
Assay: Mouse liver microsomal stability assay
Type: in vitro ADME
Details: mouse, microsomes
Text: Compounds of the present disclosure were further evaluated in standard in vitro and in vivo Absorption, Distribution, Metabolism, Excretion (ADME) and Drug Metabolism and Pharmacokinetics (DMPK) assays to assess drug profiles important for further drug development. Such assessments included human and mouse liver microsomal stability assays as well as 6-hour mouse PK studies.
endpoint: half-life

                          smiles_notation   endpoint   result
0              O=c1cccc(-c2ccc(F)cn2)cc1O  half-life    > 2 h
1          O=c1cccc(-c2cnc(C3CC3)nc2)cc1O  half-life    > 2 h
2  Cc1c(F)cncc1-c1ccc([O-])c(=O)cc1.[Na+]  half-life    > 2 h
3         Cc1ncc(-c2cccc(=O)c(O)c2)c(C)n1  half-life    > 2 h
4              O=c1ccccc(-c2ccc(F)cn2)c1O  half-life  > 2.5 h
5           Cc1ccc(-c2cncc(F)c2)cc(O)c1=O  half-life   1.38 h

----------
Test: Mouse 6-hour PK study
Conditions: in vivo
endpoint: AUC(0-t)

In [3]: df
Out[3]:
                                    compound                 result
 0  Cc1c(F)cncc1-c1ccc([O-])c(=O)cc1.[Na+] [Ex.23]        > 20000 ng·h/mL
 1         O=c1cccc(-c2ccc(F)cn2)cc1O [Ex.3]  5000 to 20000 ng·h/mL
 2      Cc1ncc(-c2cccc(=O)c(O)c2)cn1 [Ex.31]   1500 to 5000 ng·h/mL
 3     Cc1ncc(-c2cccc(=O)c(O)c2)cc1F [Ex.57]   1500 to 5000 ng·h/mL
 4     Cc1ccc(-c2cncc(F)c2)cc(O)c1=O [Ex.16]        > 20000 ng·h/mL
 5   Cc1ncc(-c2cccc(=O)c(O)c2)c(C)n1 [Ex.32]  5000 to 20000 ng·h/mL
 6            O=c1ccccc(-c2cscn2)c1O [Ex.76]    500 to 1500 ng·h/mL
 7         O=c1cccc(-c2cncc(F)c2)cc1O [Ex.1]  5000 to 20000 ng·h/mL
 8    O=c1cccc(-c2cnc(C3CC3)nc2)cc1O [Ex.37]   1500 to 5000 ng·h/mL
 9        O=c1ccccc(-c2ccc(F)cn2)c1O [Ex.26]   1500 to 5000 ng·h/mL
10       O=c1ccccc(Oc2ccc(F)cc2F)c1O [Ex.67]   1500 to 5000 ng·h/mL
